Target: T1, Antigen CD66c (CEACAM6; Sino Biological, Inc.) (UniProt P40199 35-320)
T1 construct: Bought antigen, coated on the ELISA plate; construct not described; also called CECACAM6 (CD66c) antigen; CD66c antigen
T1 sequence (looked up): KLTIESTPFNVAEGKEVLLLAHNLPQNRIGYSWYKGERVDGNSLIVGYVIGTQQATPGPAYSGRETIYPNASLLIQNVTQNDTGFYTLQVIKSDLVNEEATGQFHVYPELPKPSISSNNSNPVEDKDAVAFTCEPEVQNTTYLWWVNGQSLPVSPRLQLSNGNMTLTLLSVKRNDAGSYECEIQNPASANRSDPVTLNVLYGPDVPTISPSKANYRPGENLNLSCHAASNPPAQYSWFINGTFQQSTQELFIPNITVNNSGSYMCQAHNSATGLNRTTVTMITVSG
Assay: ELISA, CEACAM6 coated 100 ng/well, antibody at 370.37 ng/ml
OD 450 nm overview
measuredEndpoint: OD 450 nm (OD 450 nm)

binder	measuredEndpoint	observed
anti-CD66c chimeric antibody 8F5 (antibody, human IgG1, V domains shown, also called chimeric 8F5; chi 8F5) VH: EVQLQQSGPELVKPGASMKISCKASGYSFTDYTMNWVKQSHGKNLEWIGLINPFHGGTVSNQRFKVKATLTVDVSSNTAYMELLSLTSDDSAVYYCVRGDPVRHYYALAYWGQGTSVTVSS VL: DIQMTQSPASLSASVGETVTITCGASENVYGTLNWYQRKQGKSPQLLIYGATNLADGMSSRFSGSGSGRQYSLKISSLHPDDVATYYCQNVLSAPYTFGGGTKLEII	OD 450 nm	3.3
recombinant humanized anti-CD66c antibody Protein ID 3058 (Vk8 + VH11) (antibody, human IgG1, V domains shown, also called hu 3058; #86) VH: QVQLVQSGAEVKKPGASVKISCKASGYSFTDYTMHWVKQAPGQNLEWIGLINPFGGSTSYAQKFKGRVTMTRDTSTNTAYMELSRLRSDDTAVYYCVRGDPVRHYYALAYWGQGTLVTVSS VL: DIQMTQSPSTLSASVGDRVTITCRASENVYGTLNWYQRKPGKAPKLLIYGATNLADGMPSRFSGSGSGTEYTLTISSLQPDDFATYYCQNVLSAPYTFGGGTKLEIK	OD 450 nm	2.8
recombinant humanized anti-CD66c antibody Protein ID 3019 (Vk7 + VH10) (antibody, human IgG1, V domains shown, also called hu 3019; #51) VH: QVQLVQSGAEVKKPGASVKVSCKASGYSFTDYTMNWVKQAPGQNLEWIGLINPFHGGTVSNQRFKVKATMTVDVSTNTAYMELSRLRSDDTAVYYCVRGDPVRHYYALAYWGQGTLVTVSS VL: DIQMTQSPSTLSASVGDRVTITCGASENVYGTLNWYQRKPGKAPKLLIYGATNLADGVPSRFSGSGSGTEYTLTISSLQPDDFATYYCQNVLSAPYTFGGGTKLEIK	OD 450 nm	3.23
